# System: MEK6
# Construct: gene MAP2K6
# condition: Compound Concentration (nM):1000;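 also: KINOMEscan scanMAX binding as percent activity remaining versus control; lower means stronger binding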
Lab note: cut-off is 90%. Strictly less in Percent Control is 1. Exactly 90% or more is 0.

molecule: NS(=O)(=O)c1ccc(N/N=C2\C(=O)Nc3ccc(C(=O)NCc4ccncc4)cc32)cc1 [GW300657X]
category: 1

Strictly below 90% in Percent Control? Cc1cc(O)cc(C)c1/C=C/c1cncc(C(N)=O)c1 [GW435821X] 0

Strictly below 90% in Percent Control? NS(=O)(=O)c1ccc(Nc2ncc(-c3ccccc3)o2)cc1 [GW572399X] 1

---

# Tested on: TNK1
# condition: Compound Concentration (nM):1000
value kind: Percent Control (%)
The answer is to be given in %; state only the numeric part.

Solved entries (count: 3):
molecule: O=C1Nc2ccc(C(=O)c3ccco3)cc2C1=Cc1cc(Cl)c(O)c(Cl)c1 [GW406108X]
Percent Control (%): 79
--
molecule: O=C(Nc1n[nH]c2nc(-c3ccc(O)cc3)c(Br)cc12)C1CC1
Percent Control (%): 100
--
molecule: COc1ccc2cc(-c3c(-c4ccncc4)nc(-c4ccc(S(C)(=O)=O)cc4C)n3C)ccc2c1
Percent Control (%): 57

--- query ---
Dear colleague, I am looking for the recorded Percent Control of the following molecule: C[C@@H](Oc1cc(-n2cnc3ccc(OC4CCN(C)CC4)cc32)sc1C(N)=O)c1ccccc1Cl [GSK579289A] 76

---

# Test system: EPHB1
# condition: Compound Concentration (nM):1000
value kind: Percent Control (%)
The answer is to be given in %; state only the numeric part.

Solved entries (count: 5):
molecule: COc1cccc(-c2c[nH]c3c(N/N=C/c4ccncc4)ncnc23)c1 [GW814408X]
experimental system: EPHB1
Percent Control, %: 81
//
molecule: Cl.O=S1CCN(Cc2ccc(-c3ccc4ncnc(Nc5ccc(OCc6ccccc6)c(F)c5)c4c3)o2)CC1 [GW576924A]
experimental system: EPHB1
Percent Control, %: 100
//
molecule: Cl.c1ccc(Cc2nc3ccc(Nc4ncnc5ccccc45)cc3[nH]2)cc1 [GR269666A]
experimental system: EPHB1
Percent Control, %: 100
//
molecule: NS(=O)(=O)c1ccc(N/N=C2\C(=O)Nc3ccc(C(=O)NCCc4c[nH]cn4)cc32)cc1 [GW300660X]
experimental system: EPHB1
Percent Control, %: 100
//
molecule: Nc1ncnc2occ(-c3ccc(NC(=O)Nc4cc(C(F)(F)F)ccc4F)cc3)c12 [GW770249X]
experimental system: EPHB1
Percent Control, %: 14

I'm curious: which Percent Control was measured for Cl.O=C(Nc1ccc(Oc2ccc3[nH]c(NC(=O)c4ccco4)nc3c2)cc1)Nc1cc(C(F)(F)F)ccc1F [GW683134A] tested on EPHB1? 39

I'm curious: which Percent Control was measured for C/C(Nc1ccc(S(N)(=O)=O)cc1)=C1/C(=O)Nc2ccccc21 [GW335962X] tested on EPHB1? 100

I'm curious: which Percent Control was measured for NS(=O)(=O)c1ccc(N/N=C2\C(=O)Nc3ccc(C(=O)NCc4ccncc4)cc32)cc1 [GW300657X] tested on EPHB1? 100

---

# Tested on: EPHB4
# condition: Compound Concentration (nM):1000
value kind: Percent Control (%)
The answer is to be given in %; state only the numeric part.

Solved entries (count: 5):
molecule: Cc1cc(O)cc(C)c1/C=C/c1cncc(C(N)=O)c1 [GW435821X]
Percent Control (%): 100
//
molecule: NS(=O)(=O)c1ccc(N/N=C2\C(=O)Nc3ccc(C(=O)NCCc4c[nH]cn4)cc32)cc1 [GW300660X]
Percent Control (%): 100
//
molecule: NS(=O)(=O)c1ccc(N/N=C2\C(=O)Nc3ccc(-c4cnco4)cc32)cc1 [GW276655]
Percent Control (%): 84
//
molecule: COc1ccc2[nH]c3c4[nH]c5ccc(OC)cc5c4c4c(c3c2c1)C(=O)NC4=O [GW296115X]
Percent Control (%): 84
//
molecule: COc1cccc(-n2ncc3c(N/N=C/c4ccncc4)ncnc32)c1 [GW784752X]
Percent Control (%): 100

I'm curious: which Percent Control was measured for COC(=O)Nc1nc2ccc(Oc3ccc(NC(=O)Nc4cc(C(F)(F)F)ccc4F)cc3)cc2s1.Cl [GW693917A] tested on EPHB4? 59

I'm curious: which Percent Control was measured for COc1ccc2cc(-c3c(-c4ccncc4)nc(-c4ccc(S(C)(=O)=O)cc4C)n3C)ccc2c1 [SB-633825] tested on EPHB4? 73

I'm curious: which Percent Control was measured for CCc1ccc(Oc2nccc(-c3c(-c4ccc(F)cc4)ncn3C3CCNCC3)n2)cc1 [SB-242719] tested on EPHB4? 98

---

# Tested on: CDK7
# condition: Compound Concentration (nM):1000
Lab note: cut-off is 70%. Strictly less in Percent Control is y. Exactly 70% or more is n.

compound: COc1cc2ncn(-c3cc(O[C@H](C)c4ccccc4Cl)c(C(N)=O)s3)c2cc1OC [GSK237701A]
category: n

Strictly below 70% in Percent Control? NS(=O)(=O)c1ccc(N/N=C2\C(=O)Nc3ccc(Cl)cc32)cc1 [GW280670X] n

Strictly below 70% in Percent Control? COc1cc(C)c(N(C)C(=O)CN(C)C)cc1Nc1nc(Nc2cccc(F)c2C(N)=O)c2cc[nH]c2n1 n

---

# System: HASPIN
# Construct: gene GSG2
# condition: Compound Concentration (nM):1000
Quick reference for Percent Control among some compounds
The answer is to be given in %; state only the numeric part.

Solved entries (count: 3):
compound: CCS(=O)(=O)c1ccc(OC)c(Nc2ncc(-c3cccc(OC)c3)o2)c1 [GW580509X]
unit: %
measured result: 83
//
compound: CCn1c(-c2nonc2N)nc2c(C#CC(C)(C)O)nc(OCCNC)cc21.Cl
unit: %
measured result: 100
//
compound: CC(C)COC(=O)c1ccc2c(c1)/C(=C/Nc1ccc(S(N)(=O)=O)cc1)C(=O)N2 [GW416981X]
unit: %
measured result: 18

Dear colleague, I am looking for the recorded Percent Control of the following compound: CN1CCN(C(=O)c2ccc(NC(=O)Nc3ccc(N(C)c4ccnc(Nc5ccc(CS(C)(=O)=O)cc5)n4)cc3)cc2)CC1.Cl [GW830263A] 92

Dear colleague, I am looking for the recorded Percent Control of the following compound: C/C(Nc1ccc(S(N)(=O)=O)cc1)=C1/C(=O)Nc2ccccc21 [GW335962X] 33

---

# Test system: PLK1
# condition: Compound Concentration (nM):1000
Quick reference for Percent Control among some compounds

Solved entries (count: 5):
compound: CCS(=O)(=O)c1ccc(OC)c(Nc2ncc(-c3cccc(OC)c3)o2)c1 [GW580509X]
experimental system: PLK1
measured result: 92%
//
compound: Cl.O=S1CCN(Cc2ccc(-c3ccc4ncnc(Nc5ccc(OCc6ccccc6)c(F)c5)c4c3)o2)CC1 [GW576924A]
experimental system: PLK1
measured result: 100%
//
compound: CCn1c(-c2nonc2N)nc2c(C#CC(C)(C)O)nc(OCCNC)cc21.Cl
experimental system: PLK1
measured result: 100%
//
compound: Cl.O=C(Nc1ccc(Oc2ccc3[nH]c(NC(=O)c4ccccc4)nc3c2)cc1)Nc1cc(C(F)(F)F)ccc1F [GW709042A]
experimental system: PLK1
measured result: 100%
//
compound: COc1ccccc1-c1cc(/C=C2\C(=O)Nc3ncc(Br)cc32)cc(Br)c1O [GW442130X]
experimental system: PLK1
measured result: 95%

Dear colleague, I am looking for the recorded Percent Control of the following compound: Cl.O=C(O[C@H]1CN[C@H](C#Cc2cc3ncnc(Nc4ccc5c(cnn5Cc5ccccc5)c4)c3s2)C1)N1CCOCC1 [GSK200398A] 76%

Dear colleague, I am looking for the recorded Percent Control of the following compound: COc1cc2ncnc(Nc3ccc4c(cnn4Cc4ccccc4)c3)c2cc1OC.Cl [GW282449A] 91%

---

# Test system: TNIK
# condition: Compound Concentration (nM):1000
value kind: Percent Control (%)
The answer is to be given in %; state only the numeric part.

compound: NS(=O)(=O)c1ccc(N/N=C2\C(=O)Nc3ccc(Cl)cc32)cc1 [GW280670X]
measured result: 47
//
compound: COc1cc(/C=N/Nc2ncnc3[nH]ncc23)ccc1O [GW578748X]
measured result: 94
//
compound: CC1=C(C(=O)Nc2ccc3[nH]ncc3c2)C(c2ccc(Cl)c(Cl)c2)CC(=O)N1 (centres unmarked) [GSK299115A]
measured result: 100
//
compound: COc1ccc(COc2ccc(Cc3cnc(N)nc3N)cc2OC)cc1 [GW632580X]
measured result: 100

--- query ---
Dear colleague, I am looking for the recorded Percent Control of the following compound: CC(C)COC(=O)c1ccc2c(c1)/C(=C/Nc1ccc(S(N)(=O)=O)cc1)C(=O)N2 [GW416981X] 58
